Source: ChEMBL document CHEMBL3232929

target: cGMP-specific 3',5'-cyclic phosphodiesterase (Homo sapiens); experiment: Binding affinity to recombinant PDE5 catalytic domain (unknown origin) by ITC analysis
Parameter: Kd (nM)

> print(dat)
                               given.smiles  parameter  recorded.number
1  CCCOc1ccc(S(=O)(=O)N2CCN(C)CC2)cc1-c1nc(CC)c(F)c(=O)[nH]1         Kd             1730

A = CCCOc1ccc(S(=O)(=O)N2CCN(C)CC2)cc1-c1nc(CC)c(Br)c(=O)[nH]1
B = CCCOc1ccc(S(=O)(=O)N2CCN(C)CC2)cc1-c1nc(CC)cc(=O)[nH]1
C = CCCOc1ccc(S(=O)(=O)N2CCN(C)CC2)cc1-c1nc(CC)c(I)c(=O)[nH]1
D = CCCOc1ccc(S(=O)(=O)N2CCN(C)CC2)cc1-c1nc(CC)c(Cl)c(=O)[nH]1
Ask: Write the entries in order, lowest recorded Kd first. # output: labels, in the requested order
Reply: C, A, D, B
